# System: CP203
# Test summary: qHTS profiling for inhibitors of Plasmodium falciparum proliferation (AID 504749); further: nearly all actives have a fitted effect of over 60% in size
# Condition label: P. falciparum in erythrocytes, SYBR Green DNA, 72 h; series mostly up to 28.7 µM
Inconclusive results are not listed. Active and inactive are the calls of the source. The call rests on the fitted dose curve; in most records, active means well fitted inhibition curve with a large enough effect; inconclusive means small, poorly fitted or top-dose-only effect; inactive means flat fitted curve, though single readings scatter.
Classes used: true (1) = active, false (0) = inactive

{"columns": ["Compound", "Assigned label"],
 "data": [
  ["Clc1cccc(Cl)c1NC1=NCCN1", "false (0)"],
  ["CC(C)C[C@H](NC(=O)[C@@H](O)[C@H](N)Cc1ccccc1)C(=O)O", "true (1)"],
  ["N[C@@H]1CONC1=O", "false (0)"],
  ["NC(N)=NC(=O)c1nc(Cl)c(N)nc1N", "true (1)"],
  ["COc1ccc2nc(S(=O)Cc3ncc(C)c(OC)c3C)[nH]c2c1 (stereo unspecified)", "false (0)"],
  ["NC[C@H](O)c1ccc(O)c(O)c1", "false (0)"],
  ["Cc1oncc1C(=O)Nc1ccc(C(F)(F)F)cc1", "false (0)"],
  ["N#Cc1ccc(C(c2ccc(C#N)cc2)n2cncn2)cc1", "false (0)"],
  ["NC(=O)c1cnccn1", "false (0)"],
  ["O=C1CCc2cc(OCCCCc3nnnn3C3CCCCC3)ccc2N1", "false (0)"],
  ["Cn1cnc([N+](=O)[O-])c1Sc1ncnc2nc[nH]c12", "false (0)"],
  ["O=NN(CCCl)C(=O)NCCCl", "false (0)"],
  ["Cc1[nH]c(=O)c(C#N)cc1-c1ccc2nccn2c1", "false (0)"],
  ["CNC[C@H](O)c1cccc(O)c1", "false (0)"],
  ["Nc1ccc(S(=O)(=O)Nc2ccnn2-c2ccccc2)cc1", "false (0)"],
  ["NCCc1ccc(O)c(O)c1", "false (0)"],
  ["CCOC(=O)C1=C[C@@]2(CC)CCCN3CCc4c(n1c1ccccc41)[C@H]32", "true (1)"],
  ["CCCc1nc2c(C)cc(-c3nc4ccccc4n3C)cc2n1Cc1ccc(-c2ccccc2C(=O)O)cc1", "false (0)"],
  ["N=c1nc(N2CCCCC2)cc(N)n1O", "false (0)"],
  ["CCOC(=O)C1=C[C@]2(CC)CCCN3CCc4c(n1c1ccccc41)[C@@H]32", "true (1)"],
  ["O=c1[nH]cnc2[nH]ncc12", "false (0)"]
]}

---

# Test summary: qHTS of pediatric cancer cell lines to identify multiple opportunities for drug repurposing: Confirmatory screen for NB-EBc1 cells (AID 1347115);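 further: cells exposed to compound for 48 h before the viability read; nearly all actives have a fitted effect of over 45% in size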
# Condition label: NB-EBc1 neuroblastoma cells, viability (cytotoxicity); series mostly up to 45.9 µM
Results filed as inconclusive are left out. Activity calls are given as the source filed them. The call rests on the fitted dose curve; in most records, active means well fitted cell-killing curve with a large enough effect; inconclusive means small, poorly fitted or top-dose-only effect, or effect the other way; inactive means no such curve, though single readings can be large or run the other way.
Possible outcomes: T (active), F (inactive)

{"columns": ["Compound", "Assigned label"],
 "data": [
  ["Cc1c(C)c2c(c(C)c1O)CCC(C)(COc1ccc(CC3SC(=O)NC3=O)cc1)O2 (stereo not given)", "F"],
  ["CCCS(=O)(=O)Nc1ccc(F)c(C(=O)c2c[nH]c3ncc(-c4ccc(Cl)cc4)cc23)c1F", "F"],
  ["O=C(c1cc(Cc2n[nH]c(=O)c3ccccc23)ccc1F)N1CCN(C(=O)C2CC2)CC1", "F"],
  ["Cc1oncc1C(=O)Nc1ccc(C(F)(F)F)cc1", "F"],
  ["NCCCC(N)(C(=O)O)C(F)F (stereo not given)", "F"],
  ["Nc1nc2c(ncn2COCCO)c(=O)[nH]1", "F"],
  ["COc1cc(Nc2ncc3c(n2)-c2ccc(Cl)cc2C(c2c(F)cccc2OC)=NC3)ccc1C(=O)O", "T"],
  ["CN(C)c1ccc(C2Nc3ccc4ccccc4c3C3=C2C(=O)CC(C)(C)C3)cc1Br (stereo not given)", "T"],
  ["CC(C=CC1=C(C)CCCC1(C)C)=CC=CC(C)=CC(=O)O", "F"],
  ["CS(=O)(=O)c1ccc(C(=O)Nc2ccc(Cl)c(-c3ccccn3)c2)c(Cl)c1", "F"]
]}

---

# Test summary: Quantitative High-Throughput drug screen in 47 multiple myeloma cell lines against the NCATS MIPE library collection: OPM1_PLB cell viability assay (AID 1918989); further: nearly all actives have a fitted effect of over 40% in size; further: potency means the concentration at half of the fitted maximal effect
# Condition label: CellTiter-Glo, 48 h; series mostly up to 45.8 µM
Records with an inconclusive call do not appear. Active and inactive are the calls of the source. Calls follow the shape of the dose curve; as a rule, active = well fitted cell-killing curve with a large enough effect; inconclusive = small, poorly fitted or top-dose-only effect, or effect the other way; inactive = no such curve, though single readings can be large or run the other way.

{"columns": ["Compound", "Potency"],
 "data": [
  ["CC[C@H](Nc1ncnc2nc[nH]c12)c1nc2cccc(F)c2c(=O)n1-c1ccccc1", "14.8 µM (active)"],
  ["CCc1cc(Nc2nccc(-c3c(-c4ccc(OC)c(C(=O)Nc5c(F)cccc5F)c4)nc4ccccn34)n2)c(OC)cc1N1CCC(N2CCN(S(C)(=O)=O)CC2)CC1", "14.8 µM (active)"],
  ["Nc1nc2[nH]cc(CCc3ccc(C(=O)N[C@@H](CCC(=O)O)C(=O)O)cc3)c2c(=O)[nH]1", "2.96 µM (active)"],
  ["COc1cc2c(cc1OC)CN(CCc1ccc(NC(=O)c3cccc4c(=O)c5cccc(OC)c5[nH]c34)cc1)CC2", "16.6 µM (active)"],
  ["O=C1CCc2cc(OCCCCc3nnnn3C3CCCCC3)ccc2N1", "inactive"],
  ["OC(CN1CCC(Cc2ccc(F)cc2)CC1)c1ccc(Cl)cc1 (stereo not given)", "inactive"],
  ["CNCc1ccc(-c2[nH]c3cc(F)cc4c3c2CCNC4=O)cc1", "inactive"],
  ["CC(=O)Oc1ccccc1C(=O)O", "inactive"],
  ["Nc1cccc(S(=O)(=O)N2CCCN(S(=O)(=O)c3ccc4c(c3)OCCO4)CC2)c1", "inactive"],
  ["O=C1CCC(N2C(=O)c3ccccc3C2=O)C(=O)N1 (stereo not given)", "inactive"]
]}

---

# Test summary: qHTS drug screen for cell cycle checkpoint inhibitors in PARPi-resistant BRCA-mutant ovarian cancer cell lines. (AID 1963452)
# Condition label: PEO1/OlaR viability, CellTiter-Glo luminescence, 96 h; measured here: PEO4 Z-AUC; stronger effect = lower value
Measured Z-AUC values are reported for all entries that follow.
Assay metric: Z-AUC

{"columns": ["Compound", "Assay metric", "Result"],
 "data": [
  ["O=C1CCc2cc(OCCCCc3nnnn3C3CCCCC3)ccc2N1", "Z-AUC", -0.778],
  ["Cc1[nH]c(=O)c(C#N)cc1-c1ccc2nccn2c1", "Z-AUC", -0.131],
  ["Cc1c(C)c2c(c(C)c1O)CCC(C)(COc1ccc(CC3SC(=O)NC3=O)cc1)O2 (stereo not given)", "Z-AUC", 0.844],
  ["c1ccc([C@H]2CN3CCSC3=N2)cc1", "Z-AUC", -0.638],
  ["NC(=O)c1ccc(-c2nc(-c3ccc4c(c3)OCO4)c(-c3ccccn3)[nH]2)cc1", "Z-AUC", 0.909],
  ["O=C(c1cc(Cc2n[nH]c(=O)c3ccccc23)ccc1F)N1CCN(C(=O)C2CC2)CC1", "Z-AUC", 0.0684],
  ["c1ccc(-c2nn3c(c2-c2ccnc4cc(OCCN5CCOCC5)ccc24)CCC3)nc1", "Z-AUC", 0.692],
  ["CCCCNc1cc(C(=O)O)cc(S(N)(=O)=O)c1Oc1ccccc1", "Z-AUC", 0.519],
  ["Cc1cc(-c2ccc(CC(=O)Nc3ccc(-c4cccnc4)cc3)cc2)ccn1", "Z-AUC", 0.307],
  ["CC(C)C[C@H](NC(=O)[C@@H](O)[C@H](N)Cc1ccccc1)C(=O)O", "Z-AUC", 0.252]
]}

---

# Test summary: qHTS of pediatric cancer cell lines to identify multiple opportunities for drug repurposing: Confirmatory screen for Rh30 cells (AID 1347126); further: nearly all actives have a fitted effect of over 55% in size
# Condition label: Rh30 rhabdomyosarcoma cell viability; series mostly up to 45.9 µM
# Method: Drug repurposing or repositioning has been offered as a strategy for drug development in oncology programs. […] [1] Shen, M et al. Quantitative high-throughput phenotypic screening of pediatric cancer cell lines identifies multiple opportunities for drug repurposing. […] Cells were assayed in growth media at a density of 500-1,000 cells/well. […] After a 15 min incubation at room temperature, samples were analyzed for luminescence intensity using a ViewLux High-throughput CCD imager equipped with clear filters.
Inconclusive results are not listed. The source made the active and inactive calls. The call rests on the fitted dose curve; in most records, active means well fitted cell-killing curve with a large enough effect; inconclusive means small, poorly fitted or top-dose-only effect, or effect the other way; inactive means no such curve, though single readings can be large or run the other way.
Classes used: 1 for active, -1 for inactive

{"columns": ["Compound", "Assigned label"],
 "data": [
  ["COCC(=O)NCC=Cc1ccc2ncnc(Nc3ccc(Oc4ccc(C)nc4)c(C)c3)c2c1", 1],
  ["Cc1c(C)c2c(c(C)c1O)CCC(C)(COc1ccc(CC3SC(=O)NC3=O)cc1)O2 (centres undefined)", -1],
  ["Nc1nc2[nH]cc(CCc3ccc(C(=O)N[C@@H](CCC(=O)O)C(=O)O)cc3)c2c(=O)[nH]1", -1],
  ["CC(C=CC1=C(C)CCCC1(C)C)=CC=CC(C)=CC(=O)O", -1],
  ["COc1ccc(-c2ccc3c(N4CCOC[C@H]4C)nc(N4CCOC[C@H]4C)nc3n2)cc1CO", 1],
  ["COc1cc(Nc2ncc3c(n2)-c2ccc(Cl)cc2C(c2c(F)cccc2OC)=NC3)ccc1C(=O)O", -1],
  ["CCC(C)(C)C(=O)O[C@H]1C[C@@H](C)C=C2C=C[C@H](C)[C@H](CC[C@@H]3C[C@@H](O)CC(=O)O3)[C@H]21", 1],
  ["C[C@]1(c2nc3c(C(N)=O)cccc3[nH]2)CCCN1", -1],
  ["O=NN(CCCl)C(=O)NCCCl", -1]
]}
